Reported IC50 on Leucine-rich repeat serine/threonine-protein kinase 2 (Homo sapiens) for assorted molecules, compiled from publications.

MOLECULE: CCc1cc(N2C[C@H]3C[C@@H]2CN3C)ccc1Nc1ncc(C(F)(F)F)c(NCCCN2CCCOC2=O)n1
TESTED_ON: Leucine-rich repeat serine/threonine-protein kinase 2 (Homo sapiens)
IC50: 100 to 300 nM
--
MOLECULE: COc1cc(N2CCN(C)CC2)ccc1Nc1ncc(C2CC2)c(NCCCNC(=O)C2CCC2)n1
TESTED_ON: Leucine-rich repeat serine/threonine-protein kinase 2 (Homo sapiens)
IC50: 600 to 20000 nM
--
MOLECULE: CC1(Oc2ccc3[nH]nc(-c4cc(N5CCN(C(=O)CCOCCNc6cccc7c6C(=O)N(C6CCC(=O)NC6=O)C7)CC5)ncn4)c3c2)CC1 (stereo not shown)
TESTED_ON: Leucine-rich repeat serine/threonine-protein kinase 2 (Homo sapiens)
IC50: 2.5 nM
--
MOLECULE: CC(C)n1cc(-c2cc(-c3cc(Cl)cc(C(=O)N4CCOCC4)c3)cnc2N)nn1
TESTED_ON: Leucine-rich repeat serine/threonine-protein kinase 2 (Homo sapiens)
IC50: 490 nM
--
MOLECULE: CCNc1cc(Nc2ccc(P(C)(C)=O)cc2OC)nc2[nH]cc(C(F)(F)F)c12
TESTED_ON: Leucine-rich repeat serine/threonine-protein kinase 2 (Homo sapiens)
IC50: < 100 nM
--
MOLECULE: COc1cc(S(=O)(=O)N2CCC(N3CCOCC3)CC2)ccc1Nc1cc(NC2CCC2)c2c(C#N)c[nH]c2n1
TESTED_ON: Leucine-rich repeat serine/threonine-protein kinase 2 (Homo sapiens)
IC50: < 100 nM

Now for another entry.
Record summary for CN1CCN(c2ccc(Nc3ncc(C(F)(F)F)c(NCCCN4CCCCC4=O)n3)c(C3CCCC3)c2)CC1 : reported IC50 = 100 to 300 nM
